- subject.of.test: UniProt O60674
- Sequence (O60674 849-1124): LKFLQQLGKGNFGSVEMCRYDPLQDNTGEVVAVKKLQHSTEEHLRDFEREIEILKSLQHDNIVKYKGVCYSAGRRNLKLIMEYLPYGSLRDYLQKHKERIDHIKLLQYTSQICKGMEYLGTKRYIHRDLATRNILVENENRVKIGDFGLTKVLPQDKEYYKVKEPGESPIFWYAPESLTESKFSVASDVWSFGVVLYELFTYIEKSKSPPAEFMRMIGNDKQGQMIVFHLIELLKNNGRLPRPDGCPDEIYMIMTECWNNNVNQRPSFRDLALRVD
- assay.details: Jak biochemical HTRF assay, JAK2
- test.settings: HTRF biochemical assay, recombinant GST-tagged catalytic domain; read-out: JAK2 IC50
Listed here: items and their measured IC50.
result.type: IC50

compound | result.type | endpoint.result
N#C[C@H]1CCCC[C@@H]1n1nc(Nc2ccc(F)c(CN)c2)c2c(=O)[nH]ccc21 [Example 6-2] | IC50 | 2.3 nM
N#C[C@H]1CCCC[C@@H]1n1nc(Nc2ccc(CNC(=O)c3cnco3)cc2)c2c(=O)[nH]ccc21 [Example 3-29] | IC50 | 1.5 nM
N#C[C@@H]1C[C@@H](N2CCC2)CC[C@H]1n1nc(Nc2ccc(C(F)(F)F)cc2)c2c(=O)[nH]ccc21 [Example 5-9] | IC50 | 660 nM
CC(C)N1Cc2cc(Nc3nn([C@H]4CCCC[C@@H]4C#N)c4cc[nH]c(=O)c34)ccc2C1C (single isomer, unassigned) [Example 19-2] | IC50 | 0.45 nM
N#C[C@H]1CCCC[C@@H]1n1nc(Nc2ccc(C3CCNCC3)cc2)c2c(=O)[nH]ccc21 [Example 15-25] | IC50 | 0.98 nM
CC(C)(c1ccc(Nc2nn([C@H]3CCCC[C@@H]3C#N)c3cc[nH]c(=O)c23)cc1)n1nccn1 [Example 15-29] | IC50 | 0.24 nM
N#C[C@H]1CCCC[C@@H]1n1nc(Nc2ccc3c(c2)CN(C2CCCCC2)C3=O)c2c(=O)[nH]ccc21 [Example 15-34] | IC50 | 0.62 nM
N#C[C@H]1CCCC[C@@H]1n1nc(Nc2ccc3c(c2)CN(C2CCOCC2)C3=O)c2c(=O)[nH]ccc21 [Example 15-59] | IC50 | 0.41 nM
Cn1ccc(NC(=O)Cc2cccc(Nc3nn([C@H]4CCCC[C@@H]4C#N)c4cc[nH]c(=O)c34)c2)n1 [Example 3-11] | IC50 | 3.3 nM
CC(C)(C)S(=O)(=O)c1ccc(Nc2nn([C@@H]3CC(F)(F)C[C@H]3C#N)c3cc[nH]c(=O)c23)cc1 (single isomer, unassigned) [Example 22-3] | IC50 | 17 nM
CCNC(c1ccc(Nc2nn([C@H]3CCC[C@@H]3C#N)c3cc[nH]c(=O)c23)cc1)C(F)(F)F (single isomer, unassigned) [Example 3-114] | IC50 | 0.28 nM
N#C[C@H]1CCCCC[C@@H]1n1nc(Nc2ccc3c(c2)CN(C2CCCC2)C3=O)c2c(=O)[nH]ccc21 (single isomer, unassigned) [Example 15-50] | IC50 | 14 nM
CC1(C)C(=O)c2cc(Nc3nn([C@H]4CCCC[C@@H]4C#N)c4cc[nH]c(=O)c34)ccc2S1(=O)=O [Example 3-171] | IC50 | 5.5 nM
